These entries and their values trace back to patent US20230165970A1.

System: E. coli ATCC 25922
Format: cell-based
*1 amine or outer side, *2 acyl side, *3 side chain or, on linkers, in order; H or OH if unused. Where a SMILES comes first, the peptide text is derived from it. Bridges are numbered along the chain shown (N, C = ends). [ ]: non-standard residue; d: D form. The star is where a group is joined. X2 = O=C([C@@H](N[*:1])[C@H](O)CCC(F)(F)F)[*:2]; Propargyl(OCH2CH2)4CO = C#CCOCCOCCOCCOCCC(=O)*; X1 = CCCCCC[C@@H](O)[C@H](N[*:1])C(=O)[*:2]; X3 = CCCCC[C@@H](O)[C@H](N[*:1])C(=O)[*:2]; azaDab = NCCN(N[*:1])C(=O)[*:2]; dCha = N[C@H](CC1CCCCC1)C(=O)O; Aoc(2) = CCCCCC[C@H](N)C(=O)O; hLeu = CC(C)CC[C@H](N)C(=O)O; Dab = NCC[C@H](N)C(=O)O; azaGly = NNC(=O)O
MEASUREMENT KIND: MBC in blood EC 25922
The number alone won't do; follow it with the unit.

Example cases with answers are listed next.
C#CCOCCOCCOCCOCCC(=O)N[C@@H](CCC(C)C)C(=O)N[C@@H](CCN)C(=O)N[C@H](C(=O)NNC(=O)N[C@H]1CCNC(=O)[C@H]([C@@H](C)O)NC(=O)[C@H](CCN)NC(=O)[C@H](CCN)NC(=O)[C@H](CC(C)C)NC(=O)[C@@H](Cc2ccccc2)NC(=O)[C@H](CCN)NC1=O)[C@H](O)CCCCC [Int-116] ({Propargyl(OCH2CH2)4CO}-[hLeu][Dab][X3][azaGly][Dab][Dab][dF]L[Dab][Dab]T; lactam 5-C)	0.2 µg/mL
C#CCOCCOCCOCCOCCC(=O)N[C@@H](CCC(C)C)C(=O)N[C@@H](CCN)C(=O)N[C@H](C(=O)NN(CCN)C(=O)N[C@H]1CCNC(=O)[C@H]([C@@H](C)O)NC(=O)[C@H](CCN)NC(=O)[C@H](CCN)NC(=O)[C@H](CC(C)C)NC(=O)[C@@H](Cc2ccccc2)NC(=O)[C@H](CCN)NC1=O)[C@@H](C)O [Int-127] ({Propargyl(OCH2CH2)4CO}-[hLeu][Dab]T[azaDab][Dab][Dab][dF]L[Dab][Dab]T; lactam 5-C)	0.025 µg/mL
C#CCOCCOCCOCCOCCC(=O)N[C@@H](CCN)C(=O)N[C@H](C(=O)NNC(=O)N[C@H]1CCNC(=O)[C@H]([C@@H](C)O)NC(=O)[C@H](CCN)NC(=O)[C@H](CCN)NC(=O)[C@H](CC(C)C)NC(=O)[C@@H](CC2CCCCC2)NC(=O)[C@H](CCN)NC1=O)[C@H](O)CCCCCC [Int-115] ({Propargyl(OCH2CH2)4CO}-[Dab][X1][azaGly][Dab][Dab][dCha]L[Dab][Dab]T; lactam 4-C)	0.05 µg/mL
C#CCOCCOCCOCCOCCC(=O)N[C@@H](CCCCCC)C(=O)N[C@@H](CCN)C(=O)N[C@H](C(=O)N[C@@H](CCN)C(=O)N[C@H]1CCNC(=O)[C@H]([C@@H](C)O)NC(=O)[C@H](CCN)NC(=O)[C@H](CCN)NC(=O)[C@H](CC(C)C)NC(=O)[C@@H](Cc2ccccc2)NC(=O)[C@H](CCN)NC1=O)[C@H](O)CCC(F)(F)F [Int-118] ({Propargyl(OCH2CH2)4CO}-[Aoc(2)][Dab][X2][Dab][Dab][Dab][dF]L[Dab][Dab]T; lactam 5-C)	0.05 µg/mL

Proceeding to the next compound to report its MBC in blood EC 25922.
Input C#CCOCCOCCOCCOCCC(=O)Nc1nc(C)c(C(=O)N[C@@H](CCCC)C(=O)C[C@@H](CCN)C(=O)N[C@H](C(=O)NC(CCCN)C(=O)N[C@H]2CCNC(=O)[C@H]([C@@H](C)O)NC(=O)[C@H](CCN)NC(=O)[C@H](CCN)NC(=O)[C@H](CC(C)C)CC(=O)[C@@H](Cc3ccccc3)NC(=O)[C@H](CCN)CC2=O)[C@@H](C)O)s1 (some centres unmarked) . Output MBC in blood EC 25922: 0.05 µg/mL
